The measurements presented in this section are drawn from PubChem BioAssay (NCI).

System: SF-539 CNS
Assay: NCI tumour cell line growth inhibition, 48 h
*1 amine or outer side, *2 acyl side, *3 side chain or, on linkers, in order; H or OH if unused. Where a SMILES comes first, the peptide text is derived from it. [ ]: non-standard residue; d: D form. The star is where a group is joined. ξ: configuration not given here. NMeY = CN[C@@H](Cc1ccc(O)cc1)C(=O)O; Ethylenediamine = C(CN[*:2])N[*:1]; ξNMeL = CNC(CC(C)C)C(=O)O; Cbz = O=C(OCc1ccccc1)*; Lac = C[C@H](O)C(=O)O; ξA = CC(N)C(=O)O
Answer each item with its documented TGI.

Name the recorded TGI for S=C=Nc1ccc(CSc2nc3ccccc3[nH]2)cc1 .
33.4 µM

Entry C[C@]12Cc3cnc(-c4ccccc4)nc3C[C@@H]1CC[C@@H]1[C@@H]2CC[C@@]2(C)[C@H]1CC[C@]2(C)O : reported TGI = ?
9.55 µM

What does the record list as TGI for Cc1ccc(/C=C2/N=C(N/N=C\C(O)C(O)C(O)CO)NC2=O)cc1 (centres undefined) ?
> 100 µM

Fill in: TGI of COc1cc2c(cc1OC)C1c3ccccc3CCN1CCC2 (centres undefined) is ___
> 100 µM

Would you kindly share the measured TGI for NCCCCCNc1noc(Cc2c[nH]c3cc(Br)ccc23)n1 ?
5.84 µM

Query: TGI; subject: COc1ccc(C[C@@H](C(=O)NCCNC(=O)C(CC(C)C)N(C)C(=O)[C@@H]2CCCN2C(=O)[C@H](C)O)N(C)C(=O)[C@@H]2CCCN2C(=O)[C@H](CC(C)C)NC(=O)C(C)NC(=O)OCc2ccccc2)cc1 (some centres undefined) (Cbz-[ξA]LP[NMeY](Me)-{Ethylenediamine-ξNMeL-Pro-Lac})
> 100 µM

Requested read-out: TGI. Entry: CC(C)=NNc1snnc1C(N)=O
> 100 µM

What TGI value was documented for this compound, O=C(Nc1cccc(-n2cc(-c3ccncc3)c(-c3ccc(O)c(Cl)c3)n2)c1)c1ccc2c(c1)OCCO2 ?
> 100 µM

Endpoint output: TGI of O=C(O)Cc1ccc(Nc2nc3ccccc3nc2C(=O)O)cc1 . Value?
> 100 µM

###

Please respond with reported TGI for every item in the list.
Test system: SR leukemia
Experiment: NCI tumour cell line growth inhibition, 48 h

Sample NCCCOc1cc2ccccc2cc1C(=O)Nc1ccc(Cl)cc1OC(=O)c1cc2ccccc2cc1OCCCN — what was its TGI?
1.48 µM

Fill blank: measured TGI of the molecule Cc1ccc(/C=C2/N=C(N/N=C\C(O)C(O)C(O)CO)NC2=O)cc1 (configuration not stated) is ____.
> 100 µM

If you can, please state the reported TGI value of COc1ccc(C(=O)NC2=C(Cl)C(=O)c3ccccc3C2=O)cc1 .
> 19.6 µM

Using the record for CCOC(=O)/C(=C\NC(C)(C)C)c1nc2ccccc2[nH]1 , report its TGI.
28.3 µM

Requested read-out: TGI. Entry: CN1CC(c2ccccc2)C(O)(C2(c3ccccc3)CN(C)CC(c3ccccc3)C2=O)C(c2ccccc2)C1 (configuration not stated)
> 100 µM

Recorded TGI for COc1cc2oc(=O)cc(C)c2c(OC)c1O , please?
> 100 µM

Endpoint output: TGI of Cc1cccc(C)c1NC(=O)CCc1nnc2s/c(=C\c3ccc(N(C)C)cc3)c(=O)n12 . Value?
> 100 µM

Item COc1ccc(C2C(C#N)=C(S)N(C3OC(COC(C)=O)C(OC(C)=O)C(OC(C)=O)C3OC(C)=O)C(C)=C2C(C)=O)cc1 (configuration not stated) has what recorded TGI?
> 100 µM

Give its TGI value. Item: Nc1nonc1-c1nc2ccccc2n1Cc1ccc(F)cc1
> 100 µM

Recorded TGI for Cc1cccc(NC(=O)O/N=C(\Cl)C(C)C)c1 , please?
4.4 µM

Query (molecule): CCN(CC)c1c(-c2ccccc2)n[nH]c1C(=O)OC ; field requested: TGI
80.1 µM

Name the reported TGI value associated with the molecule O=C(O)CCO/N=C1/C(c2c(O)[nH]c3ccccc23)=Nc2ccccc21
57.9 µM

May I ask what TGI has been recorded for N#Cc1cc2c(cc1C#N)/C(=N\c1cccc(N)n1)N=C2Nc1cccc(N)n1 ?
> 100 µM

What value of TGI has been reported for the following molecule? Cc1ccc(S(=O)(=O)OCC#CCOS(=O)(=O)c2ccc(C)cc2)cc1
3.89 µM

Name the recorded TGI for O=C(O)C(O)(c1ccc(-c2ccccc2)cc1)c1ccc(-c2ccccc2)cc1 .
> 100 µM

Dear colleague, I am looking for the recorded TGI of the following molecule: OC(c1ccc(Cl)cc1)(c1ccc(Cl)cc1)c1cncnc1
> 100 µM

What does the data say about its TGI? Entry: O=C1C(=C2CCCC2)CCC1CN1CCCCC1 (configuration not stated)
47.1 µM

Fill in: TGI of COc1ccc(C(C)c2cc(OC)c(OC)c(OC)c2)cc1 (configuration not stated) is ___
> 50 µM

Please look up its TGI: CC(C)(C)OC(=O)NCCCCn1c2c(c3ccccc3c1=O)C(=O)c1ccccc1-2
42.4 µM

# TGI lookup, item Cc1cc(S(=O)(=O)Nc2nnc3c4ccccc4cnn23)c(S)cc1Cl
> 100 µM

What value of TGI has been recorded for this entry: O=C1C2=Cc3ccccc3OC2(O)Oc2ccccc21 (configuration not stated)
> 100 µM

I'd like to know its TGI. The molecule in question is Cc1ccccc1NC(=O)/C=N/O
> 100 µM
